- target-of-assay: recombinant human CCL20 (R&D Systems, #360-MP-025/CF) (human, UniProt P78556 27-96)
- Sequence (P78556 other isoform, or with tags, fused parts or gaps limits assumed): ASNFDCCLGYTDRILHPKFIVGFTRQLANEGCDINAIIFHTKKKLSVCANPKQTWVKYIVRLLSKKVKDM
- experiment: cell-based or functional assay
recorded-endpoint: IC50 of chemotaxis inhibition

[[record]]
binder = "humanized anti-human CCL20 antibody 36LK3/42HKK3 (antibody, human IgG1, kappa, V domains shown) VH: QVQLVQSGAEVKKPGASVKVSCKASGYTFTSYWMHWVRQAPGQGLEWMGLIDPSDKYTNYNQKFKGKATLTVDTSTSTAYMELSSLRSEDTAVYYCTRGNYGVDYGMDYWGQGTLVTVSS VL: DIQMTQSPSSLSASVGDRVTITCGASENIYGALNWYQRKPGKAPKLLIYGATNLADGVPSRFSGSGSGRDYTLTISSLQPEDFATYYCQNVLITPYTFGQGTKLEIKR"
observed_value = "1.47 nM"

[[record]]
binder = "humanized anti-human CCL20 antibody 36LC3/36HKK3 (antibody, human IgG1, kappa, V domains shown) VH: QVQLVQSGAEVKKPGASVKVSCKASGYTFTNYWMHWVRQAPGQGLEWMGVIDPSDSYTTYNQKFKGKATLTVDTSTSTAYMELSSLRSEDTAVYYCTRGNYGVDYAMDYWGQGTLVTVSS VL: DIQMTQSPSSLSASVGDRVTITCRASENIYGALNWYQQKPGKAPKLLIYGATNLADGVPSRFSGSGSGRQYSLTISSLQPEDFATYYCQNVLITPYTFGGGTKLEIKR"
observed_value = "1.26 nM"

[[record]]
binder = "humanized anti-human CCL20 antibody 36LK3/36HC3 (antibody, human IgG1, kappa, V domains shown) VH: QVQLVQSGAEVKKPGASVKVSCKASGYTFTNYWMHWVKQAPGQGLEWIGVIDPSDSYTTYNQKFKGKATMTRDTSTSTVYMELSSLRSEDTAVYYCTRGNYGVDYAMDYWGQGTSVTVSS VL: DIQMTQSPSSLSASVGDRVTITCGASENIYGALNWYQRKPGKAPKLLIYGATNLADGVPSRFSGSGSGRDYTLTISSLQPEDFATYYCQNVLITPYTFGQGTKLEIKR"
observed_value = "1.13 nM"

[[record]]
binder = "36LC3/36HC3 (antibody, human IgG1, kappa, V domains shown) VH: QVQLVQSGAEVKKPGASVKVSCKASGYTFTNYWMHWVKQAPGQGLEWIGVIDPSDSYTTYNQKFKGKATMTRDTSTSTVYMELSSLRSEDTAVYYCTRGNYGVDYAMDYWGQGTSVTVSS VL: DIQMTQSPSSLSASVGDRVTITCRASENIYGALNWYQQKPGKAPKLLIYGATNLADGVPSRFSGSGSGRQYSLTISSLQPEDFATYYCQNVLITPYTFGGGTKLEIKR"
observed_value = "1.33 nM"


Values from patent US20160046707A1
